# Target: native CB1 receptors (Rattus norvegicus, UniProt P20272)
# Sequence (P20272 whole entry): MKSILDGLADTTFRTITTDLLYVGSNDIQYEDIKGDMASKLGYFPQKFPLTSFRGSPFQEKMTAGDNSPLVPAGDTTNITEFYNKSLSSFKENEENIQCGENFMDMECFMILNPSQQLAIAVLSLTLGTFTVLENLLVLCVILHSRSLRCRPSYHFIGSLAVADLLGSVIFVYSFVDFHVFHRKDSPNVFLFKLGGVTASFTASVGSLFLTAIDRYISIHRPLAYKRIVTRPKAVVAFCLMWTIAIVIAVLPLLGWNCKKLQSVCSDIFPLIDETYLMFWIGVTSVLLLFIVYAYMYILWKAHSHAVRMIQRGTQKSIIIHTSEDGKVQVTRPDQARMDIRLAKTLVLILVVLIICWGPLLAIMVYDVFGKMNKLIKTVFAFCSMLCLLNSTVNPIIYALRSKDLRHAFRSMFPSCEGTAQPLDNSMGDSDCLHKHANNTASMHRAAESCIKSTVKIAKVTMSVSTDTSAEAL
# Experimental Protocol: CB1 receptor rat binding assay ([3H]SR141716A, rat brain membranes)
# Test Parameters: rat brain membranes, [3H]SR141716A; read-out: Binding rat pKi (converted)
Assay Endpoint: Ki (nM)
Write it as a number; the unit nM goes unstated.

State its Ki for this compound: CCN(CCNC(=O)c1ccc2c(c1)N=C(C1CCCCC1)c1ccccc1S2)c1ccccc1 [drawing 1296]
2.51

State its Ki for this compound: O=C(NCc1cccnc1)c1ccc2c(c1)N=C(c1ccc(Br)cc1)c1ccccc1S2 [drawing 1180]
12.6

State its Ki for this compound: O=C(NN1CCCCC1)c1ccc2c(c1)N=C(c1ccc(Cl)c(Cl)c1)c1ccccc1S2 [drawing 1305]
2.51

State its Ki for this compound: O=C(NC1CCCCC1)c1ccc2c(c1)N=C(c1ccc(F)cc1)c1ccccc1S2 [drawing 1202]
3.16

State its Ki for this compound: CCCNC(=O)c1ccc2c(c1)N=C(c1ccc(Cl)cc1)c1ccccc1S2 [drawing 1210]
6.31

State its Ki for this compound: O=C(NCc1cccc(Cl)c1)c1ccc2c(c1)N=C(C1CCCCC1)c1ccccc1S2 [drawing 1338]
3.98

State its Ki for this compound: Cc1ccc(CNC(=O)c2ccc3c(c2)N=C(c2ccc(F)cc2)c2ccccc2S3)o1 [drawing 1239]
0.794

State its Ki for this compound: CCCCNC(=O)c1cnc2c(n1)N=C(c1ccccc1)c1ccccc1S2 [drawing 1534]
12.6
